# target of assay: human CD33 P132T (human, UniProt P20138 18-364)
# Sequence (P20138 18-364 P132T limits assumed): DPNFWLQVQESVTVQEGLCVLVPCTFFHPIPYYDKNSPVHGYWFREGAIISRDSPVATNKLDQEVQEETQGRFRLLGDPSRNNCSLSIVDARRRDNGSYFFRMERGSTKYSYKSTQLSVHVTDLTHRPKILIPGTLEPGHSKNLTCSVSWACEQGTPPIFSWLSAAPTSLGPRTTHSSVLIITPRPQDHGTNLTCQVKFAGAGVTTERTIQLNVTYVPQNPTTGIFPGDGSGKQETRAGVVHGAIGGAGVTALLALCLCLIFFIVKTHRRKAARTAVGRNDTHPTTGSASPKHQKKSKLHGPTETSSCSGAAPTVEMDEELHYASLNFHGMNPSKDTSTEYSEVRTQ
# measurement protocol: flow cytometry, HEK293-T, IgG;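 also: CD33 point mutants transiently expressed, antibody binding measured by fluorescence in duplicate, background subtracted and scaled to binding on wild-type CD33 as 100%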
assay readout: Mean % WT Binding (% WT binding)

>>> observed_value("Refmab #1 (antibody, human IgG1, V domains shown, tested in IgG format; also called hP67.6) VH: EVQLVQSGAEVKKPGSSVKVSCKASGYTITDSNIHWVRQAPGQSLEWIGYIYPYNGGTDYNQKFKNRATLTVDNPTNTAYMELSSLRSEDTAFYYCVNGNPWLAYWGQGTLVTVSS VL: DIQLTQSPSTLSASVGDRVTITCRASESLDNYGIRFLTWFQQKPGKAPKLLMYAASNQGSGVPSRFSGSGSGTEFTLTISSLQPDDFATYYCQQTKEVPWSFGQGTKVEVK")
98.9
>>> observed_value("Refmab #3 (antibody, human IgG1, V domains shown, tested in IgG format) VH: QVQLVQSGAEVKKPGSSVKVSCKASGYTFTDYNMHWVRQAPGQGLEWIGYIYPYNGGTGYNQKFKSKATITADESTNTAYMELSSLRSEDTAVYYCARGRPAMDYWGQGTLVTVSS VL: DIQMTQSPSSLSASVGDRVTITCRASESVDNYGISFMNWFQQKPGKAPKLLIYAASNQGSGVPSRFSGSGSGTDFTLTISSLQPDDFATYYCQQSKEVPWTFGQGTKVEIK")
106
>>> observed_value("Refmab #2 (antibody, human IgG1, V domains shown, tested in IgG format) VH: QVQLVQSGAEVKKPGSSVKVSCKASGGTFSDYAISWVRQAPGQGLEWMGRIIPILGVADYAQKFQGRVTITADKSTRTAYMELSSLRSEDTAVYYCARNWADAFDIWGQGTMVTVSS VL: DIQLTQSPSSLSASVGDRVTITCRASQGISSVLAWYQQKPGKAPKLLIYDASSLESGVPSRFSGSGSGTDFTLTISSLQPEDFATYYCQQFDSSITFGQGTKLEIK")
103
>>> observed_value("Refmab #4 (antibody, human IgG1, V domains shown, tested in IgG format) VH: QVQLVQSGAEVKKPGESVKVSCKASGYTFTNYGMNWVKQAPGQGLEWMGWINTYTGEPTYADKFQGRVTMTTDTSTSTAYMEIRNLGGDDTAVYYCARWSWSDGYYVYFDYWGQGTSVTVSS VL: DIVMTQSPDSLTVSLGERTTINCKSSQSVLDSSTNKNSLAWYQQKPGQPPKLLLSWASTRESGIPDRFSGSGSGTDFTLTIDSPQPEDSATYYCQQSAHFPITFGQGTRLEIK")
99.8
